Test system: CCRIS mutagenicity, Ames/micronucleus/aberration tests
Test: CCRIS mutagenicity studies
Settings: Test System: AMES SALMONELLA TYPHIMURIUM; Strain/Indicator: TA100; Metabolic Activation: NONE; Method: PREINCUBATION
Calls of active or inactive are those of the source. The rule behind the calls is not given here.
I would appreciate it if you answered using one of these outcomes: active, inactive

Previously resolved entries follow.
Write down the call the test reported for this compound. Item: "CCCCN(CCO)CCCC"
inactive

Write down the call the test reported for this compound. Item: "CCCCCOc1cccc(NC(=O)O[C@@H]2CCCC[C@H]2N2CCCC2)c1"
inactive

Write down the call the test reported for this compound. Item: "BrCCCCBr"
inactive

Write down the call the test reported for this compound. Item: "O=C(OCc1ccccc1[N+](=O)[O-])c1ccccc1"
inactive

Write down the call the test reported for this compound. Item: "Cc1ccc(C)cc1"
inactive

Write down the call the test reported for this compound. Item: "O=C(S)c1ccccc1"
inactive

Write down the call the test reported for this compound. Item: "C=CCOC(=O)CC(C)C"
inactive

Write down the call the test reported for this compound. Item: "Cc1ccccc1N=Nc1ccc(N(C)C)cc1"
inactive

Write down the call the test reported for this compound. Item: "O=C(O)Cc1ccc([N+](=O)[O-])cc1"
active

Write down the call the test reported for this compound. Item: "Cc1cnc2ccc3c(ncn3C)c2n1"
inactive

More entries:
Write down the call the test reported for this compound. Item: "O=c1nc(O)n(Cl)c(=O)n1Cl"
inactive

Write down the call the test reported for this compound. Item: CC12OOC1(COC(=O)Nc1ccc(Cl)cc1)Oc1ccccc12 (configuration not stated)
active

Write down the call the test reported for this compound. Item: "Nc1ccc(S(=O)(=O)O)cc1"
inactive

Write down the call the test reported for this compound. Item: "C1CC[C@H]2O[C@H]2C1"
active

Write down the call the test reported for this compound. Item: "O=[N+]([O-])N(c1ccccn1)S(=O)(=O)c1ccccc1"
inactive

###

System: CCRIS mutagenicity, Ames/micronucleus/aberration tests
Assay: CCRIS mutagenicity studies
Details: Test System: AMES SALMONELLA TYPHIMURIUM; Strain/Indicator: TA98; Metabolic Activation: RAT, LIVER, S-9, AROCLOR 1254; Method: STANDARD PLATE
Active and inactive are the calls of the source. The rule behind the calls is not given here.
I would appreciate it if you answered using one of these outcomes: active, inactive

Write down the call the test reported for this compound. Item: "C=CCc1ccc(OC)cc1"
inactive

More entries:
Write down the call the test reported for this compound. Item: "O=[N+]([O-])c1ccc2ccc3c4c(cc5ccc1c2c53)C=CCC4"
active

Write down the call the test reported for this compound. Item: "O=[N+]([O-])c1c(O)ccc2c1[nH]c1ccccc12"
inactive

###

Tested on: CCRIS mutagenicity, Ames/micronucleus/aberration tests
Experiment: CCRIS mutagenicity studies
Settings: Test System: MOUSE LYMPHOMA; Strain/Indicator: L5178Y (TK+/TK-); Metabolic Activation: NONE; Method: SUSPENSION/PLATE
The source made the active and inactive calls. The rule behind the calls is not given here.
I would appreciate it if you answered using one of these outcomes: active, inactive

Write down the call the test reported for this compound. Item: "[O]=[Zr]"
inactive

Below: the item to evaluate.
Write down the call the test reported for this compound. Item: "C=C[Si](C)(C)N[Si](C)(C)C=C"
inactive

###

System: CCRIS mutagenicity, Ames/micronucleus/aberration tests
Test: CCRIS mutagenicity studies
Details: Test System: AMES SALMONELLA TYPHIMURIUM; Strain/Indicator: TA100; Metabolic Activation: NONE; Method: PREINCUBATION
Description: The CCRIS database contains chemical records with carcinogenicity, mutagenicity, tumor promotion, and tumor inhibition test results. It was developed by the National Cancer Institute (NCI). Data are derived from studies cited in primary journals, current awareness tools, NCI reports, and other sources. Test results have been reviewed by experts in carcinogenesis and mutagenesis. CCRIS provides historical information from the years 1985 - 2011. It is no longer updated. […]
Activity calls are given as the source filed them. No rule for the calls is given here.
I would appreciate it if you answered using one of these outcomes: 1 = active, 0 = inactive

Write down the call the test reported for this molecule. Item: "CCN(CC)CCCN"
0

Write down the call the test reported for this molecule. Item: "O=C(O)CN(CC(=O)O)CC(=O)O"
0

Write down the call the test reported for this molecule. Item: "O=C/C(=C(/Cl)C(=O)O)C(Cl)Cl"
1

Write down the call the test reported for this molecule. Item: "CCCCCCC[CH2][Sn]1([CH2]CCCCCCC)[O]C(=O)C=CC(=O)[O]1"
0

More entries:
Write down the call the test reported for this molecule. Item: CC1CC(=O)O1 (configuration not stated)
1

Write down the call the test reported for this molecule. Item: CCCCC(CC)COS(=O)(=O)O (configuration not stated)
0

Write down the call the test reported for this molecule. Item: "COC(=O)c1oc(NOC(C)=O)c(-c2ccccc2)c1-c1ccccc1"
0

Write down the call the test reported for this molecule. Item: CCOC(=O)CC(SP(=O)(OC)OC)C(=O)OCC (configuration not stated)
0

Write down the call the test reported for this molecule. Item: "CC(=O)O"
0

Write down the call the test reported for this molecule. Item: "CC(C)Oc1ccc(Nc2ccccc2)cc1"
0

Write down the call the test reported for this molecule. Item: "Cc1c(N(C)C)c(=O)n(-c2ccccc2)n1C"
0

Write down the call the test reported for this molecule. Item: CN1C(=O)C(O)CC1c1cccnc1 (configuration not stated)
0
